tested_on: C3b (biotinylated, captured site-specifically on a streptavidin chip) (UniProt P01024)
assay_summary: SPR (Biacore 3000), single-cycle kinetics, biotinylated C3b on streptavidin chip, peptide as analyte, 1:1 Langmuir fit
Listing of recorded kon by entry.
Just the number in M⁻¹ s⁻¹, nothing appended.

Examples with their reported kon follow.
{"substance": "Peptide 17: D-Cha-Ile-[Cys-Val-Trp(Me)-Gln-Asp-Trp-Sar-Ala-His-Arg-Cys]-mIle-NH2", "value_unit": "M⁻¹ s⁻¹", "kon": "1.8e+06"}
{"substance": "Peptide 16: D-Trp-Ile-[Cys-Val-Trp(Me)-Gln-Asp-Trp-Sar-Ala-His-Arg-Cys]-mIle-NH2", "value_unit": "M⁻¹ s⁻¹", "kon": "2e+06"}
{"substance": "Peptide 18: D-Ala-Ile-[Cys-Val-Trp(Me)-Gln-Asp-Trp-Sar-Ala-His-Arg-Cys]-mIle-NH2", "value_unit": "M⁻¹ s⁻¹", "kon": "1.4e+06"}
{"substance": "Peptide 9: Tyr(Me)-Ile-[Cys-Val-Trp(Me)-Gln-Asp-Trp-Sar-Ala-His-Arg-Cys]-mIle-NH2", "value_unit": "M⁻¹ s⁻¹", "kon": "2.3e+06"}

# ---- query substance ----
Which kon is listed for Peptide 15: D-Phe-Ile-[Cys-Val-Trp(Me)-Gln-Asp-Trp-Sar-Ala-His-Arg-Cys]-mIle-NH2 ? 2.3e+06

====

tested_on: C3b (biotinylated, captured site-specifically on a streptavidin chip) (UniProt P01024)
assay_summary: SPR (Biacore 3000), single-cycle kinetics, biotinylated C3b on streptavidin chip, peptide as analyte, 1:1 Langmuir fit
Listing of recorded Kd by entry.
Just the number in nM, nothing appended.

Examples with their reported Kd follow.
{"substance": "Peptide 18: D-Ala-Ile-[Cys-Val-Trp(Me)-Gln-Asp-Trp-Sar-Ala-His-Arg-Cys]-mIle-NH2", "measured_quantity": "Kd", "value_measured": 2.5}
{"substance": "Peptide 17: D-Cha-Ile-[Cys-Val-Trp(Me)-Gln-Asp-Trp-Sar-Ala-His-Arg-Cys]-mIle-NH2", "measured_quantity": "Kd", "value_measured": 1.5}
{"substance": "Peptide 15: D-Phe-Ile-[Cys-Val-Trp(Me)-Gln-Asp-Trp-Sar-Ala-His-Arg-Cys]-mIle-NH2", "measured_quantity": "Kd", "value_measured": 1.1}

Which Kd is listed for Peptide 16: D-Trp-Ile-[Cys-Val-Trp(Me)-Gln-Asp-Trp-Sar-Ala-His-Arg-Cys]-mIle-NH2 ? 1.2

====

tested_on: C3b (biotinylated, captured site-specifically on a streptavidin chip) (UniProt P01024)
assay_summary: SPR (Biacore 3000), single-cycle kinetics, biotinylated C3b on streptavidin chip, peptide as analyte, 1:1 Langmuir fit
Listing of recorded koff by entry.

Examples with their reported koff follow.
{"substance": "Peptide 15: D-Phe-Ile-[Cys-Val-Trp(Me)-Gln-Asp-Trp-Sar-Ala-His-Arg-Cys]-mIle-NH2", "measured_quantity": "koff", "value_measured": "0.0026 s⁻¹"}
{"substance": "Peptide 16: D-Trp-Ile-[Cys-Val-Trp(Me)-Gln-Asp-Trp-Sar-Ala-His-Arg-Cys]-mIle-NH2", "measured_quantity": "koff", "value_measured": "0.0024 s⁻¹"}

Which koff is listed for Peptide 9: Tyr(Me)-Ile-[Cys-Val-Trp(Me)-Gln-Asp-Trp-Sar-Ala-His-Arg-Cys]-mIle-NH2 ? 0.0026 s⁻¹

Which koff is listed for Peptide 18: D-Ala-Ile-[Cys-Val-Trp(Me)-Gln-Asp-Trp-Sar-Ala-His-Arg-Cys]-mIle-NH2 ? 0.0034 s⁻¹

Which koff is listed for Peptide 17: D-Cha-Ile-[Cys-Val-Trp(Me)-Gln-Asp-Trp-Sar-Ala-His-Arg-Cys]-mIle-NH2 ? 0.0027 s⁻¹

Attribution: patent US20210032291A1
